The entries below come with measured log10 Ki values attached.
target: Procathepsin L (Homo sapiens, UniProt P07711); experiment: Inhibition of human liver CatL assessed as fluorescence using Cbz-Phe-Arg-AMC as substrate measured at second inhibition step by fluorometric enzyme assays
Sequence (P07711 whole entry): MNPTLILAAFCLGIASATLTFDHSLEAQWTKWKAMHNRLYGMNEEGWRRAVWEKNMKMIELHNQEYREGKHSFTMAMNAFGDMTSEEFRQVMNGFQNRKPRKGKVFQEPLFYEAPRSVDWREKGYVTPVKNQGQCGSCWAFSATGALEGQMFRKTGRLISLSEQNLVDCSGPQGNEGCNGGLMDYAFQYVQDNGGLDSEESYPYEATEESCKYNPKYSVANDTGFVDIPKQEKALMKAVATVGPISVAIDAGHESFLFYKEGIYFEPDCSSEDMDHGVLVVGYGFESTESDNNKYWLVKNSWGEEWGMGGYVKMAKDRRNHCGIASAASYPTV
Give log10 of Ki, with Ki taken in nM.

Incoming: Query log10 Ki on Procathepsin L (Homo sapiens, UniProt P07711) for `Cc1ccc(C[C@H](NC(=O)c2ccc3c(c2)OCCO3)C(=O)N[C@H](/C=C(\F)S(=O)(=O)Cc2ccccc2)CCc2ccccc2)cc1`
Outgoing: 1.88

Incoming: Query log10 Ki on Procathepsin L (Homo sapiens, UniProt P07711) for `Cc1ccc(C[C@H](NC(=O)c2ccncc2)C(=O)N[C@H](/C=C(\F)S(=O)(=O)Cc2ccccc2)CCc2ccccc2)cc1`
Outgoing: 2.26

Incoming: Query log10 Ki on Procathepsin L (Homo sapiens, UniProt P07711) for `Cc1ccc(C[C@H](NC(=O)c2ccc3c(c2)OCCO3)C(=O)N[C@H](/C=C(\F)S(=O)(=O)Oc2ccccc2)CCc2ccccc2)cc1`
Outgoing: 2.54

Incoming: Query log10 Ki on Procathepsin L (Homo sapiens, UniProt P07711) for `Cc1cccc(C[C@H](NC(=O)c2ccncc2)C(=O)N[C@H](/C=C(\F)S(=O)(=O)Cc2ccccc2)CCc2ccccc2)c1`
Outgoing: 2.09

Incoming: Query log10 Ki on Procathepsin L (Homo sapiens, UniProt P07711) for `CSCC[C@@H](/C=C(\F)S(=O)(=O)c1ccccc1)NC(=O)[C@H](Cc1ccccc1)NC(=O)c1ccncc1`
Outgoing: 2.76

Incoming: Query log10 Ki on Procathepsin L (Homo sapiens, UniProt P07711) for `Cc1cccc(C[C@H](NC(=O)c2ccncc2)C(=O)N[C@H](/C=C(\F)S(=O)(=O)Oc2ccccc2)CCc2ccccc2)c1`
Outgoing: 2.42
